In this section, each of the binders is paired with its reported koff.
- SYSTEM TESTED: T1, Murine OPG-Fc (mouse, UniProt O08712 22-401)
- T1 sequence (looked up): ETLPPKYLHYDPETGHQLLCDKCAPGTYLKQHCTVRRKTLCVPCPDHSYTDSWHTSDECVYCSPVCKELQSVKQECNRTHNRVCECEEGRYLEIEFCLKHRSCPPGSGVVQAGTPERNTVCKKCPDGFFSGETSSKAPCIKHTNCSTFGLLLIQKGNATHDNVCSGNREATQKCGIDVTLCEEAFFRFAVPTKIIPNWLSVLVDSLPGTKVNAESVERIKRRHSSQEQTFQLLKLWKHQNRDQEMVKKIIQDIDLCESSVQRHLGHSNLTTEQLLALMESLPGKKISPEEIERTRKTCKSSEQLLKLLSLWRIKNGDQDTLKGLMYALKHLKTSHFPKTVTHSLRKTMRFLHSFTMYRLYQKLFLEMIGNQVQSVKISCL
- ASSAY PROCEDURE: SPR
Give just the numeric value; s⁻¹ need not be written.

Worked examples follow.
Name the reported koff value associated with the binder RANKL_WT (mouse soluble RANKL, aa 160–316) (ligand, UniProt O35235 160-316, looked up) EAQPFAHLTINAASIPSGSHKVTLSSWYHDRGWAKISNMTLSNGKLRVNQDGFYYLYANICFRHHETSGSVPTDYLQLMVYVVKTSIKIPSSHNLMKGGSTKNWSGNSEFHFYSINVGGFFKLRAGEEISIQVSNPSLLDPDQDATYFGAFKVQDID
7e-05

Name the reported koff value associated with the binder RANKL_Q236A (ligand, mouse, UniProt O35235 160-316, looked up) EAQPFAHLTINAASIPSGSHKVTLSSWYHDRGWAKISNMTLSNGKLRVNQDGFYYLYANICFRHHETSGSVPTDYLALMVYVVKTSIKIPSSHNLMKGGSTKNWSGNSEFHFYSINVGGFFKLRAGEEISIQVSNPSLLDPDQDATYFGAFKVQDID
0.00033

For the next question, use this binder.
Name the reported koff value associated with the binder RANKL_Q236S (ligand, mouse, UniProt O35235 160-316, looked up) EAQPFAHLTINAASIPSGSHKVTLSSWYHDRGWAKISNMTLSNGKLRVNQDGFYYLYANICFRHHETSGSVPTDYLSLMVYVVKTSIKIPSSHNLMKGGSTKNWSGNSEFHFYSINVGGFFKLRAGEEISIQVSNPSLLDPDQDATYFGAFKVQDID
0.00031
